System: OVCAR-4
Experiment: NCI tumour cell line growth inhibition, 48 h
Counter-ions that a name gives are not always drawn. Activity calls are given as the source filed them. Rule as the data show it: active = GI50 up to about 1.1 µM and inactive = higher.
Quick list: GI50 per entry.

As a guide, the following entries are already answered.
# compound, reported property, value measured
measured = [
    ("O=P(Nc1ccc(Cl)cc1)(Oc1ccccc1)N(CCCl)CCCl (stereo unspecified)", "GI50", "> 100 µM (inactive)"),
    ("CN1[C@@H]2CC[C@H]1C[C@@H](OC(c1ccccc1)c1ccccc1)C2 [BENZTROPINE MESYLATE]", "GI50", "25.5 µM (inactive)"),
    ("CC12CCC(=O)C=C1CCC1C2C(O)CC2(C)C(c3csc(N)n3)CCC12.O=S(=O)(O)c1ccc(Br)cc1 (stereo unspecified)", "GI50", "> 100 µM (inactive)"),
    ("COc1cc2c(cc1OCCCC(=O)Nc1cc(C(=O)Nc3cc(C(=O)Nc4cc(C(=O)NCCCN(C)C)n(C)n4)n(C)n3)n(C)n1)N=CC1CCCN1C2=O (stereo unspecified)", "GI50", "16.1 µM (inactive)"),
    ("N#CC1(c2nc3ccccc3o2)C(=O)C(=O)N(c2ccc(Cl)c(Cl)c2)C(=O)C1=O", "GI50", "58.6 µM (inactive)"),
    ("COc1ccc(C2(O)c3ccccc3C(=O)N(C)C2(O)c2ccc(OC)cc2)cc1 (stereo unspecified)", "GI50", "25.2 µM (inactive)"),
    ("C/C(CC(O)(/C=N/O)c1ccccc1)=N/O (stereo unspecified)", "GI50", "> 100 µM (inactive)"),
    ("O=C1C[C@H]2[C@H](c3ccc(Br)cc3)[C@H]3C(=O)c4ccccc4NC(=O)[C@@H]3[C@@]2(O)c2ccccc2N1", "GI50", "12.5 µM (inactive)"),
    ("C=CCC12CC(=O)CCC1c1ccc(OC)cc1C2=O (stereo unspecified)", "GI50", "> 100 µM (inactive)"),
    ("O=S1(=O)c2ccccc2C(Nc2ccccc2)N1c1ccccc1 (stereo unspecified)", "GI50", "67.6 µM (inactive)"),
]

-- ask Quick one: GI50 of CC(=N\N=C\c1ccccn1)/C(C)=N/N=C(C)/C(C)=N/N=C/c1ccccn1 ?
-- reply > 100 µM (inactive)

-- ask I would be grateful if you could share the reported GI50 for O=S(=O)(O)c1cc(/N=N/c2cc(S(=O)(=O)O)c3cccnc3c2O)ccc1/C=C/c1ccc(/N=N/c2cc(S(=O)(=O)O)c3cccnc3c2O)cc1S(=O)(=O)O .
-- reply > 100 µM (inactive)

-- ask # query: GI50 of entry Cc1cc(N(CCC#N)CCC#N)ccc1/N=N/c1ccccc1[N+](=O)[O-]
-- reply > 100 µM (inactive)
